We begin with pKi values for Adenosine receptor A2a (Homo sapiens, UniProt P29274), as collected from the published literature.
pKi: −log10 of the molar value.
Param threshold (6) applies to pKi; output Condition met when value >= threshold, Condition not met when value < threshold.

Observe how each entry below is paired with its result.
compound=Cc1cc(C)cc(CC(=O)Nc2cc(-n3nc(C)cc3C)nc(-c3ccccn3)n2)c1 assigned_label="Condition met"
compound=COc1ccc(C(=O)Nc2nc(-c3ccccc3)c(C(=O)c3ccc(Cl)cc3)s2)cc1 assigned_label="Condition not met"
compound=Cn1c(/C=C/c2ccccc2)nc2c1ccc(=O)n2C assigned_label="Condition not met"
compound=CCCCC#Cc1nc(NC)c2ncn([C@H]3[C@H](O)[C@H](O)[C@@H]4C[C@@H]43)c2n1 assigned_label="Condition not met"
compound=CCCCn1cnc2c(N)ncnc21 assigned_label="Condition not met"

Task: Would you say Cc1noc(-c2sc(NC(=O)c3ccco3)nc2-c2ccccc2)n1 shows pKi at minimum 6?
Output: Condition met

Task: Entry to check: COc1ccc(-c2nc3c4cn(C)nc4nc(N(C(=O)c4ccccc4)C(=O)c4ccccc4)n3n2)cc1
Output: Condition not met

Task: Entry to check: COc1ccc(-c2cn3cc(C(=O)NCCCN4CCNCC4)cc(N)c3n2)cc1OC
Output: Condition not met

Task: Entry to check: CC(O)CNc1nc2ccccc2n2nc(-c3ccco3)nc12 (stereo not given)
Output: Condition met

Task: Entry to check: Nc1nc(C(=O)NCc2cccc3cccnc23)c2cc(F)c(F)cc2n1
Output: Condition met

Task: Entry to check: CC(C)(Oc1ccc(Cl)cc1)C(=O)Nc1nnc(-c2ccccc2)[nH]1
Output: Condition not met

* * *

We begin with Ki values for Adenosine receptor A2a (Homo sapiens, UniProt P29274), as collected from the published literature.
Give the quantity in nM, number only.

Would you please look over these solved cases?
smiles_data=Nc1nc(-c2ccco2)c2cnn(Cc3ccccc3)c2n1 measured_number=3
smiles_data=COc1ccc(OC)c(CNc2nc(Cl)nc3c2ncn3[C@H]2[C@H](O)[C@H](O)[C@@H]3C[C@@H]32)c1 measured_number=2620
smiles_data=CNC(=O)[C@@]12C[C@@H]1[C@@H](n1cnc3c(NCCc4ccc(OC)c(O)c4)nc(OCCC(C)C)nc31)[C@H](O)[C@@H]2O measured_number=4860
smiles_data=CCN(CCN1CCN(c2ccc(F)cc2F)CC1)c1cc2nc(-c3ccco3)nn2c(N)n1 measured_number=0.9

Task: Would you kindly share the measured Ki for Fc1ccc(-n2c(=S)sc3c2ncn2nc(-c4ccco4)nc32)cc1 ?
Output: 2.02

* * *

We begin with Ki values for Adenosine receptor A2a (Homo sapiens), as collected from the published literature.
Label yes when Ki is strictly below 2 µM; otherwise label no.

Observe how each entry below is paired with its result.
smiles_data=O=C(Nc1nc(-c2ccccc2)c(C(=O)c2ccccn2)s1)c1ccco1 assigned_label=yes
smiles_data=CCCCC#Cc1nc(NCc2cccc(I)c2)c2ncn([C@@H]3SC[C@@H](O)[C@H]3O)c2n1 assigned_label=no
smiles_data=NCCC(=O)Nc1ccc(-c2cn3c(=O)n(-c4ccccc4)nc3c(N)n2)cc1 assigned_label=yes

Task: State whether 2 µM exceeds Ki recorded for C=CCCn1c(Br)nc2c(N)ncnc21 .
Output: yes

Task: Entry to check: CCNC(=O)[C@H]1O[C@@H](n2cnc3c(NNC(=O)c4ccc(C)s4)ncnc32)[C@H](O)[C@@H]1O
Output: no

* * *

We begin with pKi values for Adenosine receptor A2a (Homo sapiens, UniProt P29274), as collected from the published literature.
For clarity, pKi is expressed as the negative log10 of concentration in mol/L.

Would you please look over these solved cases?
molecule=Nc1nc(-c2ccco2)c2cnn(CCCc3ccc(C(=O)NO)cc3)c2n1 measured_number=6.06
molecule=CC[C@@H]1CN2C(=O)N(C)c3nc(-c4cc(Cl)cc(Cl)c4Cl)[nH]c3C2=N1 measured_number=5.57
molecule=CN1CCN(C(=O)N2CCC(NC(=O)Nc3nc4nn(C)cc4c4nc(-c5ccco5)nn34)CC2)CC1 measured_number=5.89
molecule=COc1ccc(/C=C/c2cc3c(c(=O)n(C)c(=O)n3C)n2C)cc1 measured_number=6.61
molecule=Nc1nc(-c2ccco2)c2cnn(Cc3ccc(C(=O)NO)cc3)c2n1 measured_number=6.06
molecule=COc1ccc(NC(C)=O)c2sc(NC(=O)c3ccc(F)cc3)nc12 measured_number=6.60
molecule=CCCn1c(=O)c2nc(-c3cnn(CCc4ccccc4)c3)[nH]c2n(CCC)c1=O measured_number=6.24
molecule=CCN(C(C)=O)c1ccc(OC)c2nc(NC(=O)c3ccc(-n4cnnn4)cc3)sc12 measured_number=7.10

Task: Would you kindly share the measured pKi for CCOC(=O)c1sc(SCc2ccccc2)c2c1CCCC2=O ?
Output: 3.97

Task: Entry to check: COc1ccc(CNC(=O)c2cc(-c3ccco3)nc(N)n2)cc1
Output: 7.10

* * *

We begin with Ki values for Adenosine receptor A2a (Homo sapiens, UniProt P29274), as collected from the published literature.
Give the quantity in nM, number only.

smiles_data=C[C@@H](Oc1ccccc1F)C(=O)Nc1nnc(-c2ccccc2)[nH]1 measured_number=1000
smiles_data=COC[C@H]1CCCN1c1cc(NCC(F)(F)F)nc(-n2nc(C)cc2C)n1 measured_number=24
smiles_data=COc1cc(-c2cc3c([nH]2)c(=O)n(C)c(=O)n3C)ccc1OCC(=O)Nc1ccccc1 measured_number=302
smiles_data=Nc1ncnc2c1ncn2[C@@H]1O[C@H](C(=O)NC2CCCC2)[C@@H](O)[C@H]1O measured_number=650
smiles_data=Nc1nc(-c2ccc(OCCN3CCOCC3)cc2)cn2c(=O)n(-c3ccccc3)nc12 measured_number=174

Task: Lab request: please report Ki under test system Adenosine receptor A2a (Homo sapiens, UniProt P29274) for COc1ccccc1Cn1cc2nc(-c3ccco3)nc(N)c2n1
Output: 5.37

Task: Entry to check: CCCn1c(=O)n(C)c(=O)c2[nH]c(-c3ccc(OCC(=O)O)cc3)cc21
Output: 776

Task: Entry to check: c1coc(-c2nc3[nH]ccc3cc2-c2ccncn2)c1
Output: 619

Task: Entry to check: CC(C)(C)CC(=O)Nc1ccc(C(=O)Nc2ncc(Cl)s2)cc1
Output: 28

Task: Entry to check: Cn1cc2nc(N)n3nc(-c4ccco4)nc3c2c1
Output: 20

Task: Entry to check: Nc1nc(NCCc2ccc(O)cc2)nc2sc(-c3ccccc3)nc12
Output: 96

Task: Entry to check: CCNC(=O)[C@H]1O[C@@H](n2cnc3c(NNC(=O)c4ccc[nH]4)nc(Cl)nc32)[C@H](O)[C@@H]1O
Output: 3200

Task: Entry to check: O=C(COc1ccc(Nc2nc(OCCc3c[nH]c4cc(Br)ccc34)nc3c2ncn3[C@@H]2O[C@H](CO)[C@@H](O)[C@H]2O)cc1)Nc1ccccc1
Output: 1150

Task: Entry to check: Nc1nc(NCCc2ccc(OCCCCCC(=O)NO)cc2)nc2nc(-c3ccco3)nn12
Output: 0.95

Task: Entry to check: CCOC(=O)C[C@H](Nc1nc2nn(C)cc2c2nc(-c3ccco3)nn12)C(=O)OCC
Output: 445

* * *

We begin with Ki values for Adenosine receptor A2a (Homo sapiens, UniProt P29274), as collected from the published literature.
Give the quantity in nM, number only.

Task: Would you kindly share the measured Ki for COCCn1c(=O)c2c(nc(Cc3c(F)cccc3F)n2C)n(Cc2ccco2)c1=O ?
Output: 490

Task: Entry to check: Cn1c(=O)c2[nH]c(-c3ccc(OCC(=O)N4CCN(c5ccc(Br)cc5)CC4)cc3)cc2n(C)c1=O
Output: 115

Task: Entry to check: CCOC(=O)C(Nc1nc2nn(C)cc2c2nc(-c3ccco3)nn12)C(O)c1ccccc1 (racemic)
Output: 376

Task: Entry to check: COCCn1c(=O)c2c(nc(Cc3cccs3)n2C)n(Cc2ccco2)c1=O
Output: 692

Task: Entry to check: COc1cc(-c2nc3c([nH]2)c(=O)n(C)c(=O)n3C)ccc1OCCN1CCCCC1
Output: 700

Task: Entry to check: Cn1c(=O)c2[nH]c(-c3ccc(OCC(=O)N4CCC(C(=O)c5ccc(F)cc5)CC4)cc3)cc2n(C)c1=O
Output: 302

Task: Entry to check: CCn1c(/N=C/c2ccc(Cl)cc2)c(C#N)sc1=S
Output: 1.44

* * *

We begin with log10 of Ki values for Adenosine receptor A2a (Homo sapiens), as collected from the published literature.
Use the decimal logarithm of Ki (nM).

Would you please look over these solved cases?
compound=Nc1nc(-c2ccco2)c2ncn(Cc3ccc([N+](=O)[O-])cc3)c2n1 tested_system="Adenosine receptor A2a (Homo sapiens)" measured_number=2.57
compound=CC(=O)Oc1cc(C)c2c(=O)c(-c3nc(C)cs3)coc2c1 tested_system="Adenosine receptor A2a (Homo sapiens)" measured_number=1.53
compound=Cn1cc2c(nc(NC(=O)Cc3ccc(C(F)(F)F)cc3)n3nc(-c4ccco4)nc23)n1 tested_system="Adenosine receptor A2a (Homo sapiens)" measured_number=1.88
compound=Cc1cc(NC(=O)CSc2nc3ccccc3c3nc4ccccc4n23)n[nH]1 tested_system="Adenosine receptor A2a (Homo sapiens)" measured_number=2.80
compound=COc1cc(-c2nc3c([nH]2)c(=O)n(C)c(=O)n3C)ccc1OCCN1CCOCC1 tested_system="Adenosine receptor A2a (Homo sapiens)" measured_number=5.00

Task: Would you kindly share the measured log10 of Ki for Nc1nc(NCC2CCN(CC(=O)NCCc3ccc(S(N)(=O)=O)cc3)CC2)nc2sc(-c3ccco3)nc12 ?
Output: 1.78

Task: Entry to check: CN1CCN(CCC(=O)Nc2ccc(-c3cn4c(=O)n(-c5ccccc5)nc4c(N)n3)cc2)CC1
Output: 1.04

Task: Entry to check: CCn1nnc([C@H]2O[C@@H](n3cnc4c(N)nc(N[C@H](C)Cc5ccc(Br)cc5)nc43)[C@H](O)[C@@H]2O)n1
Output: 1.01

Task: Entry to check: CCC(=O)N[C@H]1C[C@@H](n2cnc3c(NC(CC)CC)nc(NCCc4cn(C(C)C)cn4)nc32)[C@H](O)[C@@H]1O
Output: 0.90

Task: Entry to check: CCN(CC)[C@H]1CCN(CC(=O)Nc2cc(-n3nc(C)cc3C)nc(-c3ccc(C)o3)n2)C1
Output: 0.64
